// provenance: patent US20230263822A1

percent inhibition of human Factor 11 mRNA relative to untreated control cells overview
Test system: human Factor 11 mRNA
assay.details: Dose-dependent inhibition of human Factor 11 in HepG2 cells, electroporation 625-20,000 nM (Example 5)
Type: cell-based
condition.parameters: 625 nM, ~16 hours
Write down the numeric answer in % and omit the unit.

Some substances with known percent inhibition of human Factor 11 mRNA relative to untreated control cells results, for comparison:
substance	output.unit	observed.result
416864 (antisense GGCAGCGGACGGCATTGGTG; 5-10-5 gapmer, further chemistry not given here) [compound 416864]	%	45
416850 (antisense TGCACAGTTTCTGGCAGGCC; 5-10-5 gapmer, further chemistry not given here) [compound 416850]	%	69
416826 (antisense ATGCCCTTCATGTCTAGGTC; 5-10-5 gapmer, further chemistry not given here) [compound 416826]	%	67
416838 (antisense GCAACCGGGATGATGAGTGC; 5-10-5 gapmer, further chemistry not given here) [compound 416838]	%	66
416825 (antisense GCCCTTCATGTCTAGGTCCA; 5-10-5 gapmer, further chemistry not given here) [compound 416825]	%	69

Data request: For human Factor 11 mRNA, give the measured percent inhibition of human Factor 11 mRNA relative to untreated control cells of the entry 416858 (antisense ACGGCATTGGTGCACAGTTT; 5-10-5 gapmer, further chemistry not given here) [compound 416858]
Data returned: 65

---

assay.details: Hematology assays in cynomolgus monkeys (Example 45)
Format: in vivo
condition.parameters: day 8
So basically: is neutrophils under 50%? Then t. Not under? Then f.

Data request: Regarding ISIS 416838: MOE gapmer, nucleobases 1018 to 1042 of SEQ ID NO: 1 (Table 6) (antisense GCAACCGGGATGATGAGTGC; MOE gapmer, wing and gap sizes not given here) , kindly confirm whether its neutrophils is beneath 50%.
Data returned: t

Data request: Regarding ISIS 416850: MOE gapmer, nucleobases 1275 to 1318 of SEQ ID NO: 1 (Table 8) (antisense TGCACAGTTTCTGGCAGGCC; MOE gapmer, wing and gap sizes not given here) , kindly confirm whether its neutrophils is beneath 50%.
Data returned: f

Data request: Regarding ISIS 417002: MOE gapmer, nucleobases 1275 to 1318 of SEQ ID NO: 1 (Table 8) (antisense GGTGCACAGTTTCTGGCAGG; MOE gapmer, wing and gap sizes not given here) , kindly confirm whether its neutrophils is beneath 50%.
Data returned: t

Data request: Regarding ISIS 416864: MOE gapmer, nucleobases 1275 to 1318 of SEQ ID NO: 1 (Table 8) (antisense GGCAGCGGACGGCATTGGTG; MOE gapmer, wing and gap sizes not given here) , kindly confirm whether its neutrophils is beneath 50%.
Data returned: f

---

Albumin overview
condition.parameters: rat, in vivo, sc, 50 mg/kg
e = 2'-O-(2-methoxyethyl) (MOE); d = 2'-deoxy (DNA)

substance	observed.result
ISIS 416892: 3-14-3 MOE gapmer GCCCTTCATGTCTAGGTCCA (sugars from the 5' end e3 d14 e3, backbone and methylation of C not given here)	8
ISIS 417003: MOE gapmer, nucleobases 1275 to 1318 of SEQ ID NO: 1 (Table 8) (antisense TGGTGCACAGTTTCTGGCAG; MOE gapmer, wing and gap sizes not given here)	6
ISIS 416925: MOE gapmer, nucleobases 1275 to 1318 of SEQ ID NO: 1 (Table 8) (antisense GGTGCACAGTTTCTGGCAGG; MOE gapmer, wing and gap sizes not given here)	5
ISIS 416999: MOE gapmer, nucleobases 1275 to 1318 of SEQ ID NO: 1 (Table 8) (antisense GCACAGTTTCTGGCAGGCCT; MOE gapmer, wing and gap sizes not given here)	5
ISIS 416825: 5-10-5 MOE gapmer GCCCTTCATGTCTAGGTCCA (sugars from the 5' end e5 d10 e5, backbone and methylation of C not given here)	2

Data request: Indicate the recorded Albumin value for this substance: ISIS 416826: 5-10-5 MOE gapmer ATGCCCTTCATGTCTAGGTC (sugars from the 5' end e5 d10 e5, backbone and methylation of C not given here)
Data returned: 6
